The entries below come with measured log10 Kinact values attached.
biological target: Rhodesain (Trypanosoma brucei rhodesiense) (UniProt Q95PM0); experiment: Inhibition of recombinant Trypanosoma brucei rhodesiense rhodesain expressed in Pichia pastoris assessed as first order rate constant using Cbz-Phe-Arg-AMC as substrate after 30 mins by fluorescence assay
Sequence (Q95PM0 1-450): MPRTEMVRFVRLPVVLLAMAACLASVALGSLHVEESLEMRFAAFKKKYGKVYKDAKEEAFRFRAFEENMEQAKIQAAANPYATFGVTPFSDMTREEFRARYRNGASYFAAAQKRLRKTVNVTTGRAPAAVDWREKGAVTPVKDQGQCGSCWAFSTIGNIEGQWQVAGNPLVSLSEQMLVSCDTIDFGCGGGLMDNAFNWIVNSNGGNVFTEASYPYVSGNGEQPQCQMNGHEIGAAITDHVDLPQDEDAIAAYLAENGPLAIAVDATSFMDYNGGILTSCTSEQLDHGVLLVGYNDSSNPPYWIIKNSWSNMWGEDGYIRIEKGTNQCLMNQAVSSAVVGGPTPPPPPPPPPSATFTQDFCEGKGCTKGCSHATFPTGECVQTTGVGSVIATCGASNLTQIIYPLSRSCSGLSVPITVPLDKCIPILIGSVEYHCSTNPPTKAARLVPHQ
# values: log10(Kinact), units min⁻¹

{"columns": ["smiles.repr", "log10 Kinact"],
 "data": [
  ["CC(=O)/C=C/[C@H](CCc1ccccc1)NC(=O)[C@H](Cc1ccccc1)NC(=O)OCc1ccccc1", -2.59],
  ["N#C/C=C/[C@H](CCc1ccccc1)NC(=O)[C@H](Cc1ccccc1)NC(=O)OCc1ccccc1", -3.30],
  ["COC(=O)/C=C/[C@H](CCc1ccccc1)NC(=O)[C@H](CC(C)C)NC(=O)OCc1ccc([N+](=O)[O-])cc1", -2.64]
]}

Next up:
log10 Kinact lookup needed for CC(C)C[C@H](NC(=O)[C@H]1O[C@@H]1C(=O)O)C(=O)NCCCCN=C(N)N , thanks.
-2.05

----------
molecular target: Rhodesain (Trypanosoma brucei rhodesiense); assay: Inhibition of recombinant Trypanosoma brucei rhodesiense rhodesain expressed in Pichia pastoris assessed as first order rate constant using Cbz-Phe-Arg-AMC as substrate after 30 mins by fluorescence assay
The entries below come with measured Kinact values attached.
Quick note: give the figure in min⁻¹, leave out the unit.

Study these solved cases before continuing.
{"columns": ["smiles.repr", "Kinact, min⁻¹"],
 "data": [
  ["O=C(N[C@@H](Cc1ccccc1)C(=O)N[C@H](/C=C/S(=O)(=O)c1ccccc1)CCc1ccccc1)OCc1ccc([N+](=O)[O-])cc1", 0.0024],
  ["CC(=O)/C=C/[C@H](CCc1ccccc1)NC(=O)[C@H](CC(C)C)NC(=O)OCc1ccc([N+](=O)[O-])cc1", 0.0027],
  ["O=C(N[C@@H](Cc1ccccc1)C(=O)N[C@H](/C=C/S(=O)(=O)c1ccccc1)CCc1ccccc1)OCc1ccccc1", 0.0033]
]}

Kinact lookup needed for COC(=O)/C=C/[C@H](CCc1ccccc1)NC(=O)[C@H](Cc1ccccc1)NC(=O)OCc1ccccc1 , thanks.
0.0018
